targetOrTestSystem: SARS-CoV-2 3CLpro (Severe acute respiratory syndrome coronavirus 2, UniProt P0DTD1)
method: biochemical
Format: biochemical
Parameters: unit not given here
conditionDescription: sheet LOPAC_screen_w_protease; primary screen with protease, replicate 2
quantityName: Replicate_2

Find Replicate_2 (SARS-CoV-2 3CLpro (Severe acute respiratory syndrome coronavirus 2, UniProt P0DTD1)) for the entry "O=c1[nH]c2ccccc2c2ccccc12" 2.0946

Find Replicate_2 (SARS-CoV-2 3CLpro (Severe acute respiratory syndrome coronavirus 2, UniProt P0DTD1)) for the entry Cl.N=C(N)NN [Aminoguanidine hydrochloride] 2.55

Find Replicate_2 (SARS-CoV-2 3CLpro (Severe acute respiratory syndrome coronavirus 2, UniProt P0DTD1)) for the entry "CC(=O)N[C@@H](Cc1c[nH]c2ccccc12)C(=O)OCc1cc(C(F)(F)F)cc(C(F)(F)F)c1" 1.597
